ASSAYED_SYSTEM: DGI-2 (Homo sapiens)
Construct: encompassed the entire DGI-2 open reading frame (ORF); His-tag of vector pIVEX2.3-MCS (inferred from the vector and from the reverse primer lacking a stop codon); made in house; host or cells: cell-free in vitro translation (Rapid Translation System RTS, Roche; E. coli lysate)
Sequence (Q15004 1-111): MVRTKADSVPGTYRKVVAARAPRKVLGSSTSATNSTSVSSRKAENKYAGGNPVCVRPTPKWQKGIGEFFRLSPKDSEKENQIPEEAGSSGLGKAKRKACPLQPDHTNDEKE
TEST: ELISA analysis of phage on DGI-2 polypeptide (specific binding)
TEST_CONDITIONS: ratio of specific binding to non-specific binding
No end group written: not given here.

| SUBSTANCE | DGI-2/LDH (OD) |
| --- | --- |
| YTPASILTGFQRGYEGAGNG (DGI-2-20R-4-G7; listed as Escherichia coli) | 3.9 |
| RSRSSSGASGSMLRVQNHMVLGSWMVRQPMGSMTPFHGHG (DGI-2-40F-3-B5; listed as Escherichia coli) | 1.2 |
| V#CR#LCRLCRFSMRCGGLSLVLGSAAAFFCEVFVGFCV (VCRLCRLCRFSMRCGGLSLVLGSAAAFFCEVFVGFCV; not fully specified (residues 1, 3); cysteine pairing not given here; also: TAA stop codons (#) after V1 and after R3; listed as Escherichia coli) [DGI-2-40F-4-E1130] | 3.2 |
| GHGAGDWAAELFVCPVAFLTGFAWR (DGI-2-20R-4-H2; listed as Escherichia coli) | 9.2 |
| FSSVLGLLDRRGVPVVVGED (DGI-2-20F-3-C3; listed as Escherichia coli) | 1.1 |
| GLLFTSSPYQCFWVHCTLTMSPLSVLGDLSSTIGRMRASR (DGI-2-40F-3-C52; listed as Escherichia coli) | 1.3 |
| QVGGMTQVGATVLSVVTGRGSCDGEDAWYPPGVTVGLGLC (DGI-2-40F-4-F97; listed as Escherichia coli) | 6.4 |
| FRVALLSVSAGPCEGSGNT (DGI-2-20F-PP-H7; listed as Escherichia coli) | 2.1 |
| WEVGQVEKFSRGVGGWWPTG [DGI-2-20R-3-D3] | 8.3 |
| VLGADAGMIWFMDGCGIRCR (DGI-2-20R-4-E6; listed as Escherichia coli) | 7.0 |
| GMWIRPNGHMELQGGYTARS (GMWIRPNGHMFLQGGYTARS; DGI-2-20R-4-G8; listed as Escherichia coli) | 1.4 |
| WWREWVDGSLRGGGGTVLKD (DGI-2-20R-3-A122; listed as Escherichia coli) | 9.4 |
| DRHRAFVAEGLDGFRHSTGV (DGI-2-20F-PP-D4; listed as Escherichia coli) | 2.3 |
| SIVSSRSGWQRGWIAWEAPV (SIVSSRSGWQRGWIAWFAPV; DGI-2-20F-PP-E5; listed as Escherichia coli) | 2.7 |

----------
DGI-2 (OD) reference
ASSAYED_SYSTEM: DGI-2 (Homo sapiens, UniProt Q15004)
Construct: encompassed the entire DGI-2 open reading frame (ORF); His-tag of vector pIVEX2.3-MCS (inferred from the vector and from the reverse primer lacking a stop codon); made in house; host or cells: cell-free in vitro translation (Rapid Translation System RTS, Roche; E. coli lysate)
Sequence (Q15004 1-111): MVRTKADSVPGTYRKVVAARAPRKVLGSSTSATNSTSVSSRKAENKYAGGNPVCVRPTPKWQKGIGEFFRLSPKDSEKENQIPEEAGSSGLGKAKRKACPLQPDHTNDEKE
TEST: ELISA analysis of phage on DGI-2 polypeptide (specific binding)
TEST_CONDITIONS: binding to DGI-2 polypeptide (specific binding); phage ELISA units read at 405 nm

| QUERY_SEQUENCE | VALUE_UNIT | DGI-2 (OD) |
| --- | --- | --- |
| RSQVRVVSRERSTPVLIHIRIECLLFSGWCVTSGSDEGVVWG [DGI-2-40F-4-F122] | OD | 4.7 |
| LTWGPQFGSLQVYSRHRGLP (DGI-2-20R-4-E4; listed as Escherichia coli) | OD | 1.6 |
| CAYRWGLFRGPGRVDYDLQVVGIMMWPGPIPDRSSRGSVA (DGI-2-40F-3-A7; listed as Escherichia coli) | OD | 0.9 |
| RWSLPAYLCRFVSQASCNSR (DGI-2-20R-3-C12; listed as Escherichia coli) | OD | 1.6 |
